Each entry below carries its reported Fibrin % cell toxicity.
system: primary rat microglia; assay: Cell toxicity (dead cells, size <150 μm2) in coated fibrin (cFib) assay; details: primary HTS, 10 μM, fibrin assay, dead cells size <150 μm2;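 also: share of dead cells sized under 150 µm2 at 10 µM in fibrin-stimulated microglia HTS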
Structures can show the parent of a compound that is named as a salt.
MEASURE_NAME: Fibrin % cell toxicity (%)

C[N+](C)(C)CCOC(N)=O; 1
OCc1ccccc1; 0
CO/N=C(\C(=O)N[C@@H]1C(=O)N2C(C(=O)OC(C)OC(C)=O)=C(COC(N)=O)CS[C@H]12)c1ccco1 (stereo partly drawn); 1
CN(C)[C@@H]1C(O)=C(C(N)=O)C(=O)[C@@]2(O)C(O)=C3C(=O)c4c(O)ccc(Cl)c4[C@@](C)(O)[C@H]3C[C@@H]12; 1
CO/N=C(\C(=O)N[C@@H]1C(=O)N2C(C(=O)OCOC(=O)C(C)(C)C)=C(/C=C\c3scnc3C)CS[C@H]12)c1csc(N)n1; 1
Cc1nc(C)c(Cl)c(O)c1Cl; 1
C[C@H](CCC(=O)O)[C@H]1CC[C@H]2[C@@H]3[C@H](O)C[C@@H]4C[C@H](O)CC[C@]4(C)[C@H]3CC[C@]12C; 0
CC(C)(Oc1ccc(Cl)cc1)C(=O)O; 1
NC(=O)OCC(O)COc1ccc(Cl)cc1 (stereo not drawn) [Chlorphenesin Carbamate]; 1
CCOC(=O)n1ccn(C)c1=S; 0
CC(C)(C)CC(C)(C)c1cc(Cc2cc(C(C)(C)CC(C)(C)C)cc(-n3nc4ccccc4n3)c2O)c(O)c(-n2nc3ccccc3n2)c1; 0
O=C1CCO1; 1
CC(C)NCC(O)COc1ccc(COCCOC(C)C)cc1 (stereo not drawn); 0
COc1cc(OC)c(C(=O)CCCN2CCCC2)c(OC)c1 [Buflomedil, Buflomedil Hydrochloride]; 1
Cn1nnnc1SCC1=C(C(=O)O)N2C(=O)[C@@H](NC(=O)[C@H](OC=O)c3ccccc3)[C@H]2SC1 [Cefamandole Nafate]; 0
CC(C)(C)C(=O)C(Oc1ccc(Cl)cc1)n1ccnc1 (stereo not drawn); 1
CC(C)(C)NCC(O)COc1cccc2c1CCC(=O)N2 (stereo not drawn); 0
Oc1c(I)cc(Cl)c2cccnc12; 1
CCCCNc1cc(C(=O)O)cc(S(N)(=O)=O)c1Oc1ccccc1 [Bumetanide]; 1
Clc1ccc(CCC(Cn2ccnc2)Sc2c(Cl)cccc2Cl)cc1 (stereo not drawn); 0
Cc1cc(O)c(C(=O)N[C@@H](C(=O)N[C@@H]2C(=O)N3C(C(=O)O)=C(CSc4nnnn4C)CS[C@H]23)c2ccc(O)cc2)cn1 [Cefpiramide]; 1
CC1(C)[C@@H](OC(=O)CCC(=O)O)CC[C@]2(C)[C@H]3C(=O)C=C4[C@@H]5C[C@@](C)(C(=O)O)CC[C@]5(C)CC[C@@]4(C)[C@]3(C)CC[C@@H]12 [Carbenoxolone Sodium]; 0
C[C@]12CCC(=O)C=C1C=C[C@@H]1[C@@H]2CC[C@@]2(C)[C@H]1CC[C@@]21CCC(=O)O1; 1
CCC(CC)(CC(=O)Nc1cccc(/C=C/c2nc(C3CCC3)cs2)c1)C(=O)O; 1
C=CCN1C[C@H](C(=O)N(CCCN(C)C)C(=O)NCC)C[C@@H]2c3cccc4[nH]cc(c34)C[C@H]21; 1
Nc1nc(/C(=C/CC(=O)O)C(=O)N[C@@H]2C(=O)N3C(C(=O)O)=CCS[C@H]23)cs1; 1
CCCNC(=O)NS(=O)(=O)c1ccc(Cl)cc1 [Chlorpropamide]; 1
O=C(NCc1ccccc1)OCCO [Buramate]; 1
CO[C@@]1(NC(=O)C2SC(=C(C(N)=O)C(=O)O)S2)C(=O)N2C(C(=O)O)=C(CSc3nnnn3C)CS[C@@H]21 (stereo partly drawn); 0
C=C1/C(=C\C=C2/CCC[C@]3(C)[C@@H]([C@H](C)CCCC(C)(C)O)CC[C@@H]23)C[C@@H](O)C[C@@H]1O; 0
CCCCOc1ccc(CC(=O)NO)cc1; 1
COc1ccc(O)c(C(C)(C)C)c1 [Butylated Hydroxyanisole]; 1
CCCCCCCCCCCCCCCC(=O)OC[C@@H](NC(=O)C(Cl)Cl)[C@H](O)c1ccc([N+](=O)[O-])cc1 [Chloramphenicol Palmitate]; 1
